- METHOD DESCRIPTION: in vivo
- CONDITIONS: female, BALB/c nu/nu, mouse, tumour and stomach, iv, total radioactivity
Where a SMILES comes first, the peptide text is derived from it. [ ]: non-standard residue; d: D form. Tyr(3-I) = N[C@@H](Cc1ccc(O)c(I)c1)C(=O)O; Sta = CC(C)C[C@H](N)[C@@H](O)CC(=O)O; AEEA = NCCOCCOCC(=O)O
READOUT TYPE: tissue to tissue ratio at 3 h
Numbers only.

Exercise: For CC(C)C[C@H](NC(=O)C[C@H](O)[C@H](CC(C)C)NC(=O)[C@H](Cc1c[nH]cn1)NC(=O)CNC(=O)[C@@H](NC(=O)[C@H](C)NC(=O)[C@H](Cc1c[nH]c2ccccc12)NC(=O)[C@H](CCC(N)=O)NC(=O)[C@@H](Cc1ccccc1)NC(=O)COCCOCCNC(=O)[C@@H](N)Cc1ccc(O)c(I)c1)C(C)C)C(N)=O [[^125I]I-Tyr-PEG2-RM26] (H-[Tyr(3-I)][AEEA][dF]QWAVGH[Sta]L-NH2) , what is its reported tissue to tissue ratio at 3 h?
Solution: 0.5

----------
Record form. Attribute: tissue uptake at 3 h. Fill in for each entry.
- METHOD DESCRIPTION: in vivo
- CONDITIONS: mouse, spleen, iv, 40 pmol, Uptake, spleen, 3 h after injection; 40 pmol i.v.
- Protocol: Animal studies were planned and performed in agreement with EU Directive 2010/63/EU for animal experiments and Swedish national legislation concerning protection of laboratory animals. […] Mice were euthanized followed by dislocation of their neck at 0.5 h after injection and blood samples were collected by heart puncture. […] The organ radioactivity was measured in a gamma-counter and uptake values of organs were calculated as percentage of injected dose per gram tissue (% ID/g). […]
Where a SMILES comes first, the peptide text is derived from it. [ ]: non-standard residue; d: D form. Tyr(3-I) = N[C@@H](Cc1ccc(O)c(I)c1)C(=O)O; Sta = CC(C)C[C@H](N)[C@@H](O)CC(=O)O; AEEA = NCCOCCOCC(=O)O
Numbers only, in %ID/g.

{"COMPOUND": "CC(C)C[C@H](NC(=O)C[C@H](O)[C@H](CC(C)C)NC(=O)[C@H](Cc1c[nH]cn1)NC(=O)CNC(=O)[C@@H](NC(=O)[C@H](C)NC(=O)[C@H](Cc1c[nH]c2ccccc12)NC(=O)[C@H](CCC(N)=O)NC(=O)[C@@H](Cc1ccccc1)NC(=O)COCCOCCNC(=O)[C@@H](N)Cc1ccc(O)c(I)c1)C(C)C)C(N)=O [[^125I]I-Tyr-PEG2-RM26] (H-[Tyr(3-I)][AEEA][dF]QWAVGH[Sta]L-NH2)", "tissue uptake at 3 h / %ID/g": 2}

Exercise: Which value of tissue uptake at 3 h has been reported for CC(C)C[C@H](NC(=O)C[C@H](O)[C@H](CC(C)C)NC(=O)[C@H](Cc1c[nH]cn1)NC(=O)CNC(=O)[C@@H](NC(=O)[C@H](C)NC(=O)[C@H](Cc1c[nH]c2ccccc12)NC(=O)[C@H](CCC(N)=O)NC(=O)[C@@H](Cc1ccccc1)NC(=O)COCCOCCNC(=O)CN1CCN(CC(=O)O)CCN(CC(=O)O)CCN(CC(=O)O)CC1)C(C)C)C(N)=O [[^111In]In-DOTA-PEG2-RM26, metal not drawn, reference compound] in the records?
Solution: 0.1
